Target: neonatal Fc receptor FcRn (FcRn-SmBiT) (UniProt P55899 24-297)
Sequence (P55899 24-297, chain 1 of 2): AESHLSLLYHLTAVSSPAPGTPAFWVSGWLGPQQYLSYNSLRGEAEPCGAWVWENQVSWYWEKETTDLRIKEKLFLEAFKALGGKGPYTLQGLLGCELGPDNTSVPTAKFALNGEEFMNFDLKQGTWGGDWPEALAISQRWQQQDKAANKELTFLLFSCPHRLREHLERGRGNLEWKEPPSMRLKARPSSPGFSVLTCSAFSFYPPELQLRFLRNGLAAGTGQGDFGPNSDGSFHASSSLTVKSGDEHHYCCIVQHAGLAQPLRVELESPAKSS
Sequence (chain, as listed by the source, chain 2 of 2): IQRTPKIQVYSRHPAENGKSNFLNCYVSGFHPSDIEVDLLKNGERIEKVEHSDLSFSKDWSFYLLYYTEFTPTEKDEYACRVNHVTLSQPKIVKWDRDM
Experiment: competition with IgG-LgBiT tracer (Lumit FcRn assay)
reportedProperty: IC50 (µg/mL)
Give the number; µg/mL is assumed, so skip it.

binder	reportedProperty	result
S15-YTE (Fc fusion, N-linked glycan at Asn297, absent in a larger percentage (>10%) of antibodies) chain 1: QVQLLESGGGLVQPGGSLRLSCAASGFTFSSYAMSWVRQAPGKGLEWASAISGSGGSTYYADSVEGRFTISRDNSKNTLYLQMNSLRAEDTAVYYCAKDTGYCGDDCYIKLIRGGPDYWGQGTLVTVSS chain 2: DIVMTQSPLSLPVTLGQPASISCRSSQSLVYSDGNTFLNWFQQRPGQSPRRLIYQVSNRDSGVPDRFSGSGSGTDFTLKISRVEAEDVGVYYCMQGTHWPRTFGQGTKLEIK	IC50	11.8
S15-HDEL (Fc fusion, N-linked glycan at Asn297: 88%–92% high-mannose-type N-glycans, less than 2% with α-1,3-fucose and β-1,2-xylose) chain 1: QVQLLESGGGLVQPGGSLRLSCAASGFTFSSYAMSWVRQAPGKGLEWASAISGSGGSTYYADSVEGRFTISRDNSKNTLYLQMNSLRAEDTAVYYCAKDTGYCGDDCYIKLIRGGPDYWGQGTLVTVSS chain 2: DIVMTQSPLSLPVTLGQPASISCRSSQSLVYSDGNTFLNWFQQRPGQSPRRLIYQVSNRDSGVPDRFSGSGSGTDFTLKISRVEAEDVGVYYCMQGTHWPRTFGQGTKLEIK	IC50	8.58
S15 (plant-produced COVA2-15, single-chain (sc)Fv-Fc format) (Fc fusion, N-linked glycan at Asn297, major glycoforms complex type with α-1,3 fucose and β-1,2-xylose (GnGnXF)) chain 1: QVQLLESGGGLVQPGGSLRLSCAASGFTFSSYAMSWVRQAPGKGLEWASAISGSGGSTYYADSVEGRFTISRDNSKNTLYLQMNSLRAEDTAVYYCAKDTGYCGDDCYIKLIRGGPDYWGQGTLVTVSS chain 2: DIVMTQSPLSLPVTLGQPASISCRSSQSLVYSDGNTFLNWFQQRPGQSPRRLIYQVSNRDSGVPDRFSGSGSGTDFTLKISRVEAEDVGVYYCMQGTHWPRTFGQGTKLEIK	IC50	32.8

Now consider a different binder.
Returns the measured IC50 for the input binder. Input: S15-FX (Fc fusion, N-linked glycan at Asn297 devoid of core α-1,3-fucose and β-1,2-xylose; predominantly complex GnGn (52%–54%) and M5-M9 high mannose type (22%–24%); ~15% unglycosylated sites) chain 1: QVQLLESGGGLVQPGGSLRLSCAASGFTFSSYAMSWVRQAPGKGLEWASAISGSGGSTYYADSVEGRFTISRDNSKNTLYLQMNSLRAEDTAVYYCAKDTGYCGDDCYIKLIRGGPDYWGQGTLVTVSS chain 2: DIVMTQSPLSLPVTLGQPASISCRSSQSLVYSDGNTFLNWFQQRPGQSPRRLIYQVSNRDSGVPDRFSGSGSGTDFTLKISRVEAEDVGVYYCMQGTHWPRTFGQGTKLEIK
19.5

FYI, the data here is from paper PMC11672753.
